- Test system: U2OS
- TEST_DESCRIPTION: cell viability relative to DMSO; higher = less toxic
- SETTINGS: 72 h; 100 nM
Below: a set of entries, each annotated with reported cell viability.
All answers are understood in %, so give the number only.

Examples from the recorded data:
Kindly indicate its recorded cell viability. Item: O=C1C(=C(O)/C=C/c2ccc(O)cc2)C(=O)[C@@](O)([C@@H]2O[C@H](CO)[C@@H](O)[C@H](O)[C@H]2O)C(=O)[C@H]1[C@@H]1O[C@H](CO)[C@@H](O)[C@H](O)[C@H]1O 95

Kindly indicate its recorded cell viability. Item: CCOC(=O)[C@@H](N)Cc1ccc(O)c(O)c1 98.3

Kindly indicate its recorded cell viability. Item: Cc1cccc(C)c1NC(=O)CN1CCCC1=O 102

Kindly indicate its recorded cell viability. Item: O=C1CCC[C@@H]2[C@H]3CCC[N+]4([O-])CCC[C@@H](CN12)[C@@H]34 (stereo partly drawn) 98

Kindly indicate its recorded cell viability. Item: COc1c(N2CCNC(C)C2)c(F)cc2c(=O)c(C(=O)O)cn(C3CC3)c12 (stereo not drawn) 94.7

Continuing:
Kindly indicate its recorded cell viability. Item: CCCCCN(CCCOC)C(=O)[C@@H](CCC(=O)O)NC(=O)c1ccc(Cl)c(Cl)c1 [dexloxiglumide] 99.5

Kindly indicate its recorded cell viability. Item: N=C(N)NC(=O)Cc1c(Cl)cccc1Cl 104

Kindly indicate its recorded cell viability. Item: CCC[S+]([O-])c1ccc2[nH]c(NC(=O)OC)nc2c1 (stereo not drawn) [albendazole-oxide] 101
